B1: CPEB3 Ribozyme (parent)
chain: GGGGGCCACAGCAGAAGCGUUCACGUCGCGGCCCCUGUCAGAUUCUGGUGAAUCUGCGAAUUCUGCUGU

Variants of: B1
Assay: self-cleavage, relative activity (ratio to wild type); higher = more cleavage; co-transcriptional
ENDPOINT_LABEL: self-cleavage
// keep it numeric: no unit symbol after the value

G5C A60G: 0.215
A16U U26G: 0.461
G4U U61A: 0.154
G56U G65A: 0.47
C9U: 1.01

stdin: Look at this variant and give its reported self-cleavage. C32A G37A
stdout: 0.263

stdin: Look at this variant and give its reported self-cleavage. U36C U67C
stdout: 0.981

stdin: Look at this variant and give its reported self-cleavage. C32A C45A
stdout: 0.586

stdin: Look at this variant and give its reported self-cleavage. A51G A60C
stdout: 0.373

stdin: Look at this variant and give its reported self-cleavage. U36G A51U
stdout: 0.117

stdin: Look at this variant and give its reported self-cleavage. G17A C63U
stdout: 0.313

stdin: Look at this variant and give its reported self-cleavage. A40U G58C
stdout: 0.881

stdin: Look at this variant and give its reported self-cleavage. U44G C57G
stdout: 0.335

stdin: Look at this variant and give its reported self-cleavage. G47A U64G
stdout: 0.959

stdin: Look at this variant and give its reported self-cleavage. C12A U55C
stdout: 0.366

stdin: Look at this variant and give its reported self-cleavage. C29G U67A
stdout: 0.517
